Biological target: T1, Recombinant Human DLL4 (R&D Systems Cat#1506-D4/CF) (human, UniProt Q9NR61 27-524)
T1 construct: Bought recombinant protein; also called delta-like protein 4; rHuman DLL4
Experiment: ECL multispot (MSD) binding assay, DLL4 spotted on plate, purified Fab in solution; Fab concentration not given
Listed here: items and their measured ECL signal.

binder	recorded measurement
Fab VH1-46_IGHD6-6*01_IGHJ1*01 S102A/S103P/S104F/H111F (APFF) & L6_IGKJ1*01 S28R (Fab, V domains shown, Fab expressed in E. coli: VH joined to CH1 (Plasmid A, His6 and Flag tags), VL joined to kappa CL (Plasmid C); also called APFF S28R) VH: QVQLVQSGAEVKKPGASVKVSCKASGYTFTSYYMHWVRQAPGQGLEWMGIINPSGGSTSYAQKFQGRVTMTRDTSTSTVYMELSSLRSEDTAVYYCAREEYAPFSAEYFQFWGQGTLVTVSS VL: EIVLTQSPATLSLSPGERATLSCRASQRVSSYLAWYQQKPGQAPRLLIYDASNRATGIPARFSGSGSGTDFTLTISSLEPEDFAVYYCQQRSNWPPWTFGQGTKVEIKR	110000

Which ECL signal is listed for Fab VH1-46_IGHD6-6*01_IGHJ1*01 S102A/S103P/S104F/H111F (APFF) & L6_IGKJ1*01 S30P (Fab, V domains shown, Fab expressed in E. coli: VH joined to CH1 (Plasmid A, His6 and Flag tags), VL joined to kappa CL (Plasmid C); also called APFF S30P) VH: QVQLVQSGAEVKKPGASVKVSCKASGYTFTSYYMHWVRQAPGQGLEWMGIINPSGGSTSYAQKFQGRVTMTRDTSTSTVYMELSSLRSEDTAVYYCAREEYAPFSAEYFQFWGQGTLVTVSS VL: EIVLTQSPATLSLSPGERATLSCRASQSVPSYLAWYQQKPGQAPRLLIYDASNRATGIPARFSGSGSGTDFTLTISSLEPEDFAVYYCQQRSNWPPWTFGQGTKVEIKR ?
1140

Cited source: patent US20120316071A1
